Entries and their measured VQIINK Inhibition IC50 follow.
target: Ac-VQIINK-NH2 (SEQ ID NO: 23) (N-terminal acetyl (Ac); C-terminal amide (NH2)); assay: cell-based or functional assay
Square brackets hold non-standard residues; d marks the D form. Ends that are not written are not given here.
Result type: VQIINK Inhibition IC50 (µm)

Binder | Unit string | Observed value
[dH][dR][dL][dK][dV][dR][dW][dW] [hrlkvrww] | µm | 1.77
[dW][dR][dL][dK][dF][dR][dW] [wrlkfrw] | µm | 2.23
[dL][dR][dI][dE][dI][dE][dW][dH] [lrieiewh] | µm | 2.1
[dW][dR][dF][dK][dV][dR][dW] [wrfkvrw] | µm | 1.66
